// each record: one item and its pIC50 for LSD1 (Homo sapiens (Human))
pIC50: −log10 of the molar value. Counter-ions that a name gives are not always drawn.
assay metric: pIC50

(1) COc1ccc(-c2cnc(N3CCC(NCc4ccc(/C=C/C(=O)NO)cc4)CC3)c(C#N)c2-c2ccc(C#N)c(F)c2)c(O)c1O [Example 140, formate]
(2) N#Cc1ccc(-c2nc(N3CCC(N)CC3)cc(OCCCCCCC(=O)NO)c2-c2ccc(F)c(F)c2)cc1F [Example 6, hydrochloride]
(3) CC(C)(O)COc1ccc(-c2cnc(N3CCC(NCc4ccc(/C=C/C(=O)NO)cc4)CC3)c(C#N)c2-c2ccc(C#N)c(F)c2)cc1O [Example 143, formate]
stdin: List the items above again, this time ordered by increasing pIC50. Answer by writing out the labels in the requested order.
stdout: 2, 1, 3
